Assign Heart/Liver Counts/Gram Ratio to each entry below.
- assay-overview: Rat biodistribution of Tc-99m complexes
- assay-context: 60 min p.i.
One number for each entry.

>  <compound>
CCOCCP(CCOCC)CC(CP(CCOCC)CCOCC)OC

>  <Heart/Liver Counts/Gram Ratio>
1.62

$$$$
>  <compound>
COC(C)CCP(CCC(C)OC)CCP(CCC(C)OC)CCC(C)OC (stereo not shown)

>  <Heart/Liver Counts/Gram Ratio>
2.48

$$$$
>  <compound>
CC1(C)OCC(CP(CCP(CC2COC(C)(C)O2)CC2COC(C)(C)O2)CC2COC(C)(C)O2)O1 (stereo not shown)

>  <Heart/Liver Counts/Gram Ratio>
3.99

$$$$
>  <compound>
CCOCCP(CCOC)CCP(CCOC)CCOCC (stereo not shown)

>  <Heart/Liver Counts/Gram Ratio>
3.93

$$$$
>  <compound>
CCOCC(COCC)CP(CCP(CC(COCC)COCC)CC(COCC)COCC)CC(COCC)COCC

>  <Heart/Liver Counts/Gram Ratio>
0.14

$$$$
>  <compound>
CCOCP(CCP(COCC)COCC)COCC

>  <Heart/Liver Counts/Gram Ratio>
0.37

$$$$
>  <compound>
C1COC(CP(CCP(CC2CCCO2)CC2CCCO2)CC2CCCO2)C1 (stereo not shown)

>  <Heart/Liver Counts/Gram Ratio>
2.62

$$$$
>  <compound>
CCOCCP(CCCP(CCOCC)CCOCC)CCOCC

>  <Heart/Liver Counts/Gram Ratio>
0.21

$$$$

List the reported Heart/Liver Counts/Gram Ratio of each compound below.
1. CCOCCCP(CCCOCC)CCP(CCCOCC)CCCOCC
2. CCOC(CCP(CCC(OCC)OCC)CCP(CCC(OCC)OCC)CCC(OCC)OCC)OCC
3. COCCP(CCOC)CCP(CCOC)CCOC

Solution:
2.13
0.69
1.17

Hello, I would appreciate it if you could give Heart/Liver Counts/Gram Ratio for each entry below.
1. COC(C)(C)CCP(CCP(CCC(C)(C)OC)CCC(C)(C)OC)CCC(C)(C)OC
2. C1COC(CP(CCCP(CC2CCCO2)CC2CCCO2)CC2CCCO2)C1 (stereo not shown)
3. C1CC(CP(CCP(CC2CCOCC2)CC2CCOCC2)CC2CCOCC2)CCO1
4. COCC(COC)CP(CCP(CC(COC)COC)CC(COC)COC)CC(COC)COC

Solution:
1: 0.96; 2: 0.46; 3: 0.34; 4: 1.59

Go through the items and report each one's Heart/Liver Counts/Gram Ratio.
1. FC(F)(F)COCCCP(CCCOCC(F)(F)F)CCP(CCCOCC(F)(F)F)CCCOCC(F)(F)F
2. CCOC(C)CP(CCP(CC(C)OCC)CC(C)OCC)CC(C)OCC (stereo not shown)
3. CCOCCP(CCOCC)CCP(CCOCC)CCOCC [Compound 1, (EtOC2 H4)2 P--C2 H4 --P(C2 H4 OEt)2]
4. CCOCCP(CCOC(C)C)CCP(CCOCC)CCOC(C)C (stereo not shown)

Solution:
[0.04, 1.25, 14.4, 1.21]

====

- assay-overview: Rat biodistribution of Tc-99m complexes
- assay-context: 2 min p.i.
measured-endpoint: Heart/Blood Counts/Gram Ratio
Numbers only.

>  <compound>
CCOC(C)CP(CCP(CC(C)OCC)CC(C)OCC)CC(C)OCC (centres unmarked)

>  <Heart/Blood Counts/Gram Ratio>
2.54

$$$$
>  <compound>
COC(C)(C)CCP(CCP(CCC(C)(C)OC)CCC(C)(C)OC)CCC(C)(C)OC

>  <Heart/Blood Counts/Gram Ratio>
1.01

$$$$
>  <compound>
CC1(C)OCC(CP(CCP(CC2COC(C)(C)O2)CC2COC(C)(C)O2)CC2COC(C)(C)O2)O1 (centres unmarked)

>  <Heart/Blood Counts/Gram Ratio>
1.20

$$$$
>  <compound>
CCOCCP(CCOCCF)CCP(CCOCC)CCOCCF (centres unmarked)

>  <Heart/Blood Counts/Gram Ratio>
2.31

$$$$
>  <compound>
CCOCP(CCCP(COCC)COCC)COCC

>  <Heart/Blood Counts/Gram Ratio>
0.43

$$$$

For each listed entry, give its Heart/Blood Counts/Gram Ratio.
1. C1CC(CP(CCP(CC2CCOCC2)CC2CCOCC2)CC2CCOCC2)CCO1
2. CCOC=CP(C=COCC)CCP(C=COCC)C=COCC

Solution:
0.34
0.61
